# target-system: Angiotensin-converting enzymes (ACE) from porcine kidneys (EC 3.4.15.1) (Sus scrofa)
# Construct: Angiotensin-converting enzymes (ACE) from porcine kidneys (EC 3.4.15.1) were purchased from Sigma-Aldrich; purchased Sigma-Aldrich (St. Louis, MO, USA); host or cells: porcine kidneys (tissue-derived enzyme)
# Sequence (F1RRW5 34-1309): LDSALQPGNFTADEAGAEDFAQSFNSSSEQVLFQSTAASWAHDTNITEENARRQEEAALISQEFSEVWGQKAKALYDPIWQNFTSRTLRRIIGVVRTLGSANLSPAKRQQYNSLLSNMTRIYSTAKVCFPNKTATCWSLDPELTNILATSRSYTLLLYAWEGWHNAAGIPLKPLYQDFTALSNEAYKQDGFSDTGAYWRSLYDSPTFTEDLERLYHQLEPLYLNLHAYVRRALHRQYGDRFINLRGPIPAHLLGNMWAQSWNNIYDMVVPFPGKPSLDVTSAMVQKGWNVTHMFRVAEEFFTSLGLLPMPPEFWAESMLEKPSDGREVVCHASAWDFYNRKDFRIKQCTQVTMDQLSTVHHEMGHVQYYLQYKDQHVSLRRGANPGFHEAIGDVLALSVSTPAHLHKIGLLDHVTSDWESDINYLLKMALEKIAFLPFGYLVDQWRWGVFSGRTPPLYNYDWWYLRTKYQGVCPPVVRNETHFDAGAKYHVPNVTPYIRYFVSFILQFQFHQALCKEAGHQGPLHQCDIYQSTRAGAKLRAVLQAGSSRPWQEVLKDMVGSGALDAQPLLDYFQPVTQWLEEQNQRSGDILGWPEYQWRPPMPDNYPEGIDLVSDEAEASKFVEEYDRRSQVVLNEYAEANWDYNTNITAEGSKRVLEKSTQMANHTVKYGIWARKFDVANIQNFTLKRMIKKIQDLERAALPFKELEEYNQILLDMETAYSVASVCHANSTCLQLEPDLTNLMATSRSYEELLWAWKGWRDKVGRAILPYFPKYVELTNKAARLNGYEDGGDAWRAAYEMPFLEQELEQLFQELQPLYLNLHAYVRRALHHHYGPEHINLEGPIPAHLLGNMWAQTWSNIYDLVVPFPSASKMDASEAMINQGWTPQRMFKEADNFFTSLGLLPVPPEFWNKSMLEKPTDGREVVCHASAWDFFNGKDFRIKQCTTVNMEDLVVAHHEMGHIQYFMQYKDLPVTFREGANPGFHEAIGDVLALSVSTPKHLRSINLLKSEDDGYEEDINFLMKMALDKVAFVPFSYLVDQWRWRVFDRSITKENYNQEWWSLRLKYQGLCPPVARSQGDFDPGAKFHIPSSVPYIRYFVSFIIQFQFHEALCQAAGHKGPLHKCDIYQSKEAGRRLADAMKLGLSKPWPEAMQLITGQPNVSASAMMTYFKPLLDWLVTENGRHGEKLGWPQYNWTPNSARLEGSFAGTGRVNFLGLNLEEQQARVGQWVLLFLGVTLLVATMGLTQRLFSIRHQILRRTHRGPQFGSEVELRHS
# assay: biochemical
# setup-conditions: IC50 (ACE inhibition), values of this study restated in mM in the discussion
# Protocol: Angiotensin-converting enzymes (ACE) from porcine kidneys (EC 3.4.15.1) were purchased from Sigma-Aldrich (St. Louis, MO, USA). […] Angiotensin-converting enzyme (ACE) activity inhibitory assay was performed according to the method of Sentandreu and Toldra. […] The fluorescence generated by the liberation of the product (the o-aminobenzoylglycine group) was read in a microplate multiscan fluorometer. […]
quantity-name: IC50 (mM)
Express your answer in mM, writing the number without its unit.

Fill in IC50 for record "O=C(O)c1cc(O)ccc1O"
0.834

// provenance: paper PMC12298876
